experimental_details: Liver microsomal metabolic stability, human liver microsomes (HLM)
setup_conditions: human, liver microsomes
observable: half-life at 1 μM

Please review the entries below; each comes with its answer.
molecule | observable | observed_result
CCn1cc(C(F)(F)F)nc1-c1ccc([C@H](C)N2C(=O)CCn3nc(-c4c(C#N)cnn4C(C)C)cc32)cc1F (single isomer, unassigned) | half-life at 1 μM | > 25 min
COc1ccnc(C(C)C)c1-c1cc2n(n1)CCC(=O)N2Cc1ccc(-c2nc(C(F)(F)F)cn2C)cc1 | half-life at 1 μM | < 25 min
COc1ncnc(C2CC2)c1-c1cc2n(n1)CCC(=O)N2Cc1ccc(-n2nc(C#N)cc2OC)c(F)c1 | half-life at 1 μM | > 25 min
CC(C)n1cc([N+](=O)[O-])nc1-c1ccc(CN2C(=O)CCn3nc(-c4c(Cl)cnn4C(C)C)cc32)cc1 | half-life at 1 μM | > 25 min
CCn1cc(C(F)(F)F)nc1-c1ccc(O[C@@H]2CCCn3nc(-c4c(OC)ncnc4C4CC4)cc32)cc1F (single isomer, unassigned) | half-life at 1 μM | > 25 min

--- query ---
Reported half-life at 1 μM for CCn1cc(C(F)(F)F)nc1-c1ccc(NC2CCCn3nc(-c4c(Cl)cnn4C(C)C)cc32)cn1 (stereo not drawn) was > 25 min

====

Documented half-life at 1 μM across a set of molecules
experimental_details: Liver microsomal metabolic stability, rat liver microsomes (RLM)
setup_conditions: rat, liver microsomes, t1/2 (min) in RLM, 1 μM compound, 1 mg/mL microsomes, NADPH

Below are worked cases with known answers.
molecule | half-life at 1 μM
CCn1cc(C(F)(F)F)nc1-c1ccc(CN2C(=O)CCn3nc(-c4c(Cl)cnn4C(C)COC)cc32)cc1F (stereo not shown) | < 25 min
Cc1cc(C(F)(F)F)nn1-c1ccc(CN2C(=O)CCn3nc(-c4c(Cl)cnn4C(C)C)cc32)cc1F | > 25 min
CCn1cc(C(F)(F)F)nc1-c1ccc([C@@H](C)N2CCCn3nc(-c4c(Cl)cnn4C(C)C)cc32)cc1 (single isomer, unassigned) | < 25 min
CC(C)n1ncc(Cl)c1-c1cc2n(n1)CCC(=O)N2Cc1ccc(-c2cn(C)c(C(F)(F)F)n2)c(F)c1 | > 25 min
COc1nccc(C2CC2)c1-c1nc2n(n1)CCC(=O)N2Cc1ccc(-c2nc(C(F)(F)F)cn2C(C)C)c(F)c1 | > 25 min
CC(C)n1ncc(Cl)c1-c1cc2n(n1)CC(O)C(=O)N2Cc1ccc(-c2nc(C(F)(F)F)cn2C)cc1 (stereo not shown) | > 25 min

Could you now consider this next molecule?
# molecule "CCn1cc(C(F)(F)F)nc1-c1ccc(CN2C(=O)CCn3nc(-c4c(OC(F)F)ncnc4C4CC4)nc32)cc1F" ; its half-life at 1 μM = > 25 min

====

half-life at 1 μM: recorded values
experimental_details: Liver microsomal metabolic stability, human liver microsomes (HLM)
setup_conditions: human, liver microsomes

Reference set (5 entries):
compound | half-life at 1 μM
Cc1cnn(C(C)C)c1-c1cc2n(n1)CCC(=O)N2Cc1ccc(-c2nc(C(F)(F)F)nn2C)cc1 | < 25 min
CCn1cc(C(F)(F)F)nc1-c1ccc(O[C@H]2CCCn3nc(-c4c(OC)ncnc4C4CC4)cc32)cc1F (single isomer, unassigned) | > 25 min
CCn1cc(C(F)(F)F)nc1-c1ccc(C(C)n2c(=O)ccn3nc(-c4c(OC)ncnc4C4CC4)nc23)cc1 (stereo not shown) | > 25 min
Cc1cnn(C(C)C)c1-c1cc2n(n1)CCC(=O)N2Cc1ccc(-c2nc(C(F)(F)F)c[nH]2)cc1 | < 25 min
COc1ncnc(C2CC2)c1-c1cc2n(n1)CCCN2Cc1ccc(-n2nc(C(F)(F)F)cc2C)cc1 | < 25 min

Recorded result, CCn1cc(C(F)(F)F)nc1-c1ccc(CN2C(=O)C(N(C)C)Cn3nc(-c4c(Cl)cnn4C(C)C)cc32)cc1 (stereo not shown) , half-life at 1 μM: < 25 min

Entry under test: "CCn1cc(C(F)(F)F)nc1-c1ccc(CN2C(=O)CCn3nc(-c4c(OC)ncnc4C4CC4)nc32)c(OC)c1F" . Its half-life at 1 μM was > 25 min

====

experimental_details: Liver microsomal metabolic stability, rat liver microsomes (RLM)
setup_conditions: rat, liver microsomes, t1/2 (min) in RLM, 1 μM compound, 1 mg/mL microsomes, NADPH
As shown below, each of these compounds has a reported half-life at 1 μM value.

What the record says about "CCn1cc(C(F)(F)F)nc1-c1ccc(Cn2c(=O)ccn3nc(-c4c(OC(F)F)ncnc4C4CC4)nc23)cc1" : half-life at 1 μM is > 25 min

half-life at 1 μM for "COc1ncnc(C2CC2)c1-c1cc2n(n1)CCC(=O)N2[C@H](C)c1ccc(-c2nc(C(F)(F)F)cn2C(C)C)cc1" is > 25 min

In plain terms, CCn1cc(C(F)(F)F)nc1-c1ccc(NC2CCCn3nc(-c4c(Cl)cnn4C(C)C)cc32)cn1 (stereo not shown) has a documented half-life at 1 μM of > 25 min

====

Let's look at some compounds and their measured pIC50.
target: USP1/UAF1 enzyme (Homo sapiens, UniProt O94782)
Sequence (O94782 whole entry): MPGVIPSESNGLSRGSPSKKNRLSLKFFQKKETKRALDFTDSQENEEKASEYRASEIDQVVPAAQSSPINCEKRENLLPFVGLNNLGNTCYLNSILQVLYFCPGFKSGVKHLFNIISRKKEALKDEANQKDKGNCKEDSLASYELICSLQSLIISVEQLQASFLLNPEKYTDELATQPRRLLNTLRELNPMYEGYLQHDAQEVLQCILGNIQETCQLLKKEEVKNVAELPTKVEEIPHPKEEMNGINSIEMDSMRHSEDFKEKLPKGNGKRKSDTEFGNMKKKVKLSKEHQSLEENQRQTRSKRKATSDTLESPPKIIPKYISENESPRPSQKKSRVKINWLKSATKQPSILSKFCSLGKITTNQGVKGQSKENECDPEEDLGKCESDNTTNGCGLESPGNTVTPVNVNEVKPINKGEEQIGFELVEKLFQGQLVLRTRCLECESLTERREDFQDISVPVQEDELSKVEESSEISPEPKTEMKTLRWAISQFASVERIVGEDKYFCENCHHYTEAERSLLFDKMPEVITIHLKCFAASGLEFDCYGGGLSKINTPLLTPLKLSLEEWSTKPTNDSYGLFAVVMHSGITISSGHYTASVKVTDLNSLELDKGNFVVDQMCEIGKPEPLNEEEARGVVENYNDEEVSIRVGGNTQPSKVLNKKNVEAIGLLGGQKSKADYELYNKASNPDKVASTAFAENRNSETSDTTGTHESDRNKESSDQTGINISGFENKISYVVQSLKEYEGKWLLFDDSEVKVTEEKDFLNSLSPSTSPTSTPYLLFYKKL
Sequence (Q8TAF3 whole entry partner): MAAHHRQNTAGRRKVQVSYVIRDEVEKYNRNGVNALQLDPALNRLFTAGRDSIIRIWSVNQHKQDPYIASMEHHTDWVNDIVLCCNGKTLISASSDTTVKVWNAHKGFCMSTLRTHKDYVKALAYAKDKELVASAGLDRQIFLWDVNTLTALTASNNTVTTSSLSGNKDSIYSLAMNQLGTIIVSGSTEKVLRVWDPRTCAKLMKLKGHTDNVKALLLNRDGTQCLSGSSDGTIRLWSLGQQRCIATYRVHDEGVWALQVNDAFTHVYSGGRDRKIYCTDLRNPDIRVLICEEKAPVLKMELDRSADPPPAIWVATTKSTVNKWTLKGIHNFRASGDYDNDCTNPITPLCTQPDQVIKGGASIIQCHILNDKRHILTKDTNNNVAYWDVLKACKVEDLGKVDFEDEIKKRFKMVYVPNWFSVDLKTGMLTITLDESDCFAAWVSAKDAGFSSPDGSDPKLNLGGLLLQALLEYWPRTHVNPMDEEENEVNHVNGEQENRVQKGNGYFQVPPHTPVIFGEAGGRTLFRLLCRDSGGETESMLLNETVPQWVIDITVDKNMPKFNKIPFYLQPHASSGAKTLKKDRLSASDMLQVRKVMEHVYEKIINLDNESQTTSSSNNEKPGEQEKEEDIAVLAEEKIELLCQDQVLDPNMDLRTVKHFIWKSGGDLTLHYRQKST
experimental_details: USP1/UAF1 deubiquitination assay (ubiquitin-rhodamine 110 substrate)
setup_conditions: read-out: USP1 IC50 (Ub-Rho)
pIC50: −log10 of the molar value.

compound | target | observed_result
Cc1cnn(C(C)C)c1-c1cc2n(n1)CCCN2Cc1ccc(-c2nc(C(F)(F)F)nn2C)cc1 | USP1/UAF1 enzyme (Homo sapiens, UniProt O94782) | > 7.00

The value of pIC50 recorded for "CCn1cc(C(F)(F)F)nc1-c1ccc(CN2C(=O)CCn3nc(-c4c(C(C)(C)C)cnn4C)cc32)cc1" when tested on USP1/UAF1 enzyme (Homo sapiens, UniProt O94782) reads 6.30 to 7.00

Form field, pIC50 with USP1/UAF1 enzyme (Homo sapiens, UniProt O94782), item COc1ncnc(C2CC2)c1-c1nc2n(n1)CCC(=O)N2C(C)c1ccc(-c2ncccc2N(C)C)cc1 (stereo not shown) : > 7.00

Record "CCNc1ccc(-c2ccc(CN3C(=O)CCn4nc(-c5c(Cl)cnn5C(C)C)cc43)cc2Cl)nn1" has USP1/UAF1 enzyme (Homo sapiens, UniProt O94782) pIC50 equal to < 6.30

The reported USP1/UAF1 enzyme (Homo sapiens, UniProt O94782) pIC50 of "CC(C)n1cc(C(F)(F)F)nc1-c1ccc(CN2C(=O)CCn3nc(-c4c(Cl)cnn4C(C)C)nc32)cc1F" is > 7.00

Param item: "CCn1nc(-c2ccc(CN3C(=O)CCn4nc(-c5c(C)cnn5C(C)C)cc43)cc2)nc1C(F)(F)F" ; param system: USP1/UAF1 enzyme (Homo sapiens, UniProt O94782); output pIC50: < 6.30

The reported pIC50 value, USP1/UAF1 enzyme (Homo sapiens, UniProt O94782), for "COCc1cc(C(F)(F)F)nn1-c1ccc(CN2C(=O)CCn3nc(-c4c(Cl)cnn4C(C)C)cc32)cc1" reads > 7.00

====

experimental_details: Liver microsomal metabolic stability, rat liver microsomes (RLM)
setup_conditions: rat, liver microsomes, t1/2 (min) in RLM, 1 μM compound, 1 mg/mL microsomes, NADPH
observable: half-life at 1 μM

Please review the entries below; each comes with its answer.
compound | half-life at 1 μM
Cc1cnn(C(C)C)c1-c1nn2c(c1Cl)N(Cc1ccc(-c3nc(C(F)(F)F)cn3C)cc1)C(=O)CC2 | < 25 min
Cc1cnn(C(C)C)c1-c1nc2n(n1)CCCN2Cc1ccc(-c2nc(C(F)(F)F)cn2C)cc1 | < 25 min
CCn1cc(C(F)(F)F)nc1-c1ccc([C@H](C)n2c(=O)ccn3nc(-c4c(OC)ncnc4C4CC4)nc23)cc1 | > 25 min
CCn1cc(C(F)(F)F)nc1-c1ccc([C@@H](C)N2C(=O)CCn3nc(-c4c(Cl)cnn4C(C)C)nc32)cc1OC | < 25 min
CCn1cc(C(F)(F)F)nc1-c1ccc(CN2C(=O)CCn3nc(-c4c(OC)ncnc4C4CC4)nc32)cc1Cl | > 25 min
CCn1cc(C(F)(F)F)nc1-c1ccc(NC2CCCn3nc(-c4c(OC)ncnc4C4CC4)cc32)cc1 (stereo not shown) | > 25 min
COc1ncnc(C2CC2)c1-c1nc2n(n1)CCC(=O)N2[C@H](C)c1ccc(-c2nc(C(F)(F)F)cn2C(C)C)cc1 | > 25 min
CC(C)n1ncc(Cl)c1-c1cc2n(n1)CCC(=O)N2Cc1ccc(-c2ncccc2N2CCOCC2)c(Cl)c1 | < 25 min
CC(C)n1cc([N+](=O)[O-])nc1-c1ccc(CN2C(=O)CCn3nc(-c4c(Cl)cnn4C(C)C)cc32)cc1 | < 25 min
COc1ccc(C)nc1-c1ccc(CN2C(=O)CCn3nc(-c4c(Cl)cnn4C(C)C)cc32)cc1Cl | < 25 min

Short answer for "CCn1cc(C(F)(F)F)nc1-c1ccc(CN2C(=O)CCn3nc(-c4c(OC)ncnc4C4CC4)nc32)c(OC)c1F" : half-life at 1 μM was > 25 min

In plain terms, "CCn1cc(C(F)(F)F)nc1-c1c(F)cc(CN2C(=O)CCn3nc(-c4c(Cl)cnn4C(C)C)nc32)cc1OC" has a documented half-life at 1 μM of < 25 min

According to the records, this compound "Cc1cnn(C(C)C)c1-c1cc2n(n1)CCCN2Cc1ccc(-c2nc(C(F)(F)F)nn2C)cc1" displays half-life at 1 μM of < 25 min

Value of half-life at 1 μM reported for the compound "CCn1cc(C(F)(F)F)nc1-c1ccc([C@@H](C)n2c(=O)ccn3nc(-c4c(OC)ncnc4C4CC4)cc23)cc1" is > 25 min

Record "COc1cc(C(F)(F)F)nn1-c1ccc(CN2C(=O)CCn3nc(-c4c(C)cnn4C(C)C)cc32)cc1F" , field half-life at 1 μM: < 25 min

Entry CCn1cc(C(F)(F)F)nc1-c1ccc(CN2C(=O)C(NC)Cn3nc(-c4c(Cl)cnn4C(C)C)cc32)cc1 (stereo not shown) , half-life at 1 μM reported as < 25 min

Sure, the documented half-life at 1 μM for "Cc1cnn(C(C)C)c1-c1nc2n(n1)CCC(=O)N2Cc1ccc(-c2nc(C(F)(F)F)cn2C(C)C)cc1" is < 25 min
